molecular target: T1, glucagon receptor present in the plasma membranes isolated from rat liver (rat, UniProt P30082 27-485); experiment: 125I-glucagon displacement, rat liver plasma membranes
T1 construct: whole, on cells
T1 sequence (P30082 27-485): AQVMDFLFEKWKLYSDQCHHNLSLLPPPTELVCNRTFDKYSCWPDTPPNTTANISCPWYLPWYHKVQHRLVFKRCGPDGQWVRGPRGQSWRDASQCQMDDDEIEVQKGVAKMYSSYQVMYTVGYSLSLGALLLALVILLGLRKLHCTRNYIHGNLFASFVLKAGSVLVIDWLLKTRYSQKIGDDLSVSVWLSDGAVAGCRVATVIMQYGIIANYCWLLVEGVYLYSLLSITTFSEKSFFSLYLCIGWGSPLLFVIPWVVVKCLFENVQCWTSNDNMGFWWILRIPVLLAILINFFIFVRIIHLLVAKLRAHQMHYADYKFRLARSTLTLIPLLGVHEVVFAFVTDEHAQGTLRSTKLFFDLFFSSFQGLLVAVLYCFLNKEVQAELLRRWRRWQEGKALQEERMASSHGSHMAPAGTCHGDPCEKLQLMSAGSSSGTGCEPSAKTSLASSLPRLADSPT
Ends that are not written are not given here. * marks the point of attachment. Palmitoyl = CCCCCCCCCCCCCCCC(=O)*
reported.property: IC50 (nM)

INSERT INTO assay_data (binder, reported_property, data_value) VALUES
  ('HSQGTFTSDYAKYLDAKKAKEFIAWLVKGRG [G58]', 'IC50', 164),
  ('HSQGTFTSDYARYLDARRAREFIKWLVRGRGK(Palmitoyl) [G182]', 'IC50', 220),
  ('HSQGTFTSDYSKYLDSRRAQDFVQWLVKGR-NH2 [G1]', 'IC50', 6.6),
  ('HSQGTFTSDYAAYLDARRAKEFIAWLVKGR-NH2 [G56]', 'IC50', 125),
  ('HSQGTFTSDYAKYLDAAKAKEFIAWLVKGRG [G60]', 'IC50', 682),
  ('HSQGTFTSDYARYLDAKKAKEFIAWLVKGRG [G59]', 'IC50', 97.5);
